Biological target: AHR (Homo sapiens)
Assay: In vitro assay 2: agonism in human cell line (transactivation assay, U87 cells, DRE firefly luciferase reporter)
Assay type: cell-based
Set-up: host or cells: U87 glioblastoma cells, stably transfected with DRE firefly luciferase and renilla reporter constructs
Conditions: no kynurenic acid, 20 hours, read-out: Assay 2: AHR-luc Hum Agonism IC50
pIC50: −log10 of the molar value.
Listed here: items and their measured pIC50.

Cc1ccc(-c2cc(C(=O)N[C@H](C)CO)c(=O)n(-c3cnn(C)c3)n2)cc1 | < 4.70
C[C@H](CO)NC(=O)c1cc(-c2ccc(C(F)(F)F)cc2)nn(-c2cnn(C)c2)c1=O | < 4.70
C[C@@H](NC(=O)c1cc(-c2ccc(Cl)cc2)nn(-c2cccnc2)c1=O)C(C)(C)O | < 4.70
Cn1cc(-n2nc(-c3ccc(Cl)cc3)cc(C(=O)N[C@H]3CCCC[C@H]3O)c2=O)cn1 | < 4.70

Continue with the next compound.
Q: Which measured pIC50 value corresponds to Cc1cc(-n2nc(-c3ccc(Cl)cc3)cc(C(=O)N[C@@H](C)CO)c2=O)cs1 ?
Result: < 4.70

###

Entries and their pIC50 values follow.
Biological target: AHR (Homo sapiens)
Sequence (P35869 11-848): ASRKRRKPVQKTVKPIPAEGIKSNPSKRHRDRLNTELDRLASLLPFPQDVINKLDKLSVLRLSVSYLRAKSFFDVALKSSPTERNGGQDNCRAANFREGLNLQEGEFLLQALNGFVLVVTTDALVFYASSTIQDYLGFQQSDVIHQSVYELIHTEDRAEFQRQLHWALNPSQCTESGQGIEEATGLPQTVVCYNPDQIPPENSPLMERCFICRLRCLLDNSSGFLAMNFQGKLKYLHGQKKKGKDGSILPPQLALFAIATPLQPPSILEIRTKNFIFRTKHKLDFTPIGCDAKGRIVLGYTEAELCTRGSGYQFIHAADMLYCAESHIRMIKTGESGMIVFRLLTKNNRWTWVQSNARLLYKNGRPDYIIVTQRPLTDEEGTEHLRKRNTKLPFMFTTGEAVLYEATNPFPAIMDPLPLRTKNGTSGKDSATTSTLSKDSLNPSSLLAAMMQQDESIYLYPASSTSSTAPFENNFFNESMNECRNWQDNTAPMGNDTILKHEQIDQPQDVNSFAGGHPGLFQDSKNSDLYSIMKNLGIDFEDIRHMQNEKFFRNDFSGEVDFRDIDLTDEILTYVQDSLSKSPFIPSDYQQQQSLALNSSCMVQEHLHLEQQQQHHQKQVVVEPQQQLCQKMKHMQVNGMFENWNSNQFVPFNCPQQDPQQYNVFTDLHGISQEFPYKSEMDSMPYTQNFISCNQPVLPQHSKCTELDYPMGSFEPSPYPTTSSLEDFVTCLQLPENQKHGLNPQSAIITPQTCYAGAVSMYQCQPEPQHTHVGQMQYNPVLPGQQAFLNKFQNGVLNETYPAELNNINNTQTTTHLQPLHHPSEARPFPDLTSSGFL
Assay: In vitro assay 1: antagonism in human cell line (transactivation assay, U87 cells prestimulated with kynurenic acid, DRE firefly luciferase reporter)
Type: cell-based
Set-up: host or cells: U87 glioblastoma cells, stably transfected with DRE firefly luciferase and renilla reporter constructs
Settings: 150 uM kynurenic acid, 20 hours, read-out: Assay 1: AHR-luc Hum Antagonism IC50
The value called pIC50 is obtained by taking minus log10 of the concentration in mol/L.

Solved entries:
O=C(N[C@@H]1CC[C@@H]1O)c1cc(-c2ccc(C(F)(F)F)cc2)nn(-c2cccnc2)c1=O (single isomer, unassigned) [Example 268] | 7.24
C[C@@H](CO)NC(=O)c1cc(-c2ccc(C(F)(F)F)cc2)nn(-c2cnn(C)c2)c1=O [Example 39] | 8.68
O=C(N[C@@H]1COC[C@@H]1O)c1cc(-c2ccc(C(F)F)cc2)nn(-c2cccnc2)c1=O (relative stereo) [Example 323] | 7.22
O=C(NCC(O)C(F)(F)F)c1cc(-c2ccc(Cl)cc2)nn(-c2cccnc2)c1=O (racemic) [Example 78] | 8.18
C[C@@H](CO)NC(=O)c1cc(-c2ccc(C(F)(F)F)cc2)nn(-c2cn[nH]c2)c1=O [Example 244] | 7.92

Q: For the compound shown here, O=C(N[C@H](CO)C(F)(F)F)c1cc(-c2ccc(OC(F)(F)F)cc2)nn(-c2cccnc2)c1=O [Example 134] , give the reported pIC50.
Result: 8.11

Q: Same read-out for C[C@@H](CO)NC(=O)c1cc(-c2ccc(Cl)cc2)nn(-c2cnoc2)c1=O [Example 253] ?
Result: 7.71

Q: # iterate: O=C(N[C@H]1CCCC(F)(F)[C@@H]1O)c1cc(-c2ccc(OC(F)(F)F)cc2)nn(-c2cccnc2)c1=O (single isomer, unassigned; enantiomer 2) [Example 142]
Result: 8.08

Q: And N#C[C@@H](CO)NC(=O)c1cc(-c2ccc(Cl)cc2)nn(-c2cccnc2)c1=O [Example 254] ?
Result: 7.64

Q: What do we get for Cn1cc(-n2nc(-c3ccc(C(F)(F)F)cc3)cc(C(=O)N[C@@H]3COC[C@@H]3O)c2=O)cn1 (relative stereo) [Example 215] ?
Result: 8.66

Q: Another compound to check: C[C@H](NC(=O)c1cc(-c2ccc(CF)cc2)nn(-c2cnn(C)c2)c1=O)C(C)(C)O [Example 284]
Result: 6.24

Q: Another: C[C@@H](CO)NC(=O)c1cc(-c2ccc(CF)cc2)nn(-c2cnn(C)c2)c1=O [Example 287]
Result: 6.14

Q: Same question for O=C(N[C@@H]1CCC[C@H]1O)c1cc(-c2ccc(Cl)cc2)nn(-c2cccnc2)c1=O (relative stereo) [Example 148] please.
Result: 7.82

Q: Can you check O=C(NC[C@H](O)C(F)(F)F)c1cc(-c2ccc(OC(F)(F)F)cc2)nn(-c2cccnc2)c1=O [Example 131] next?
Result: 8.21

Q: What about C[C@@H](NC(=O)c1cc(-c2ccc(C(F)(F)F)nc2)nn(-c2cncc(F)c2)c1=O)C(C)(C)O [Example 342] ?
Result: 6.88

Q: Same thing, different compound: O=C(N[C@H]1COC[C@H]1O)c1cc(-c2ccc(OC(F)(F)F)cc2)nn(-c2cccnc2)c1=O (single isomer, unassigned; enantiomer 1) [Example 158]
Result: 7.66

Q: What about C[C@H](NC(=O)c1cc(-c2ccc(N(C)C)cc2)nn(-c2cnn(C)c2)c1=O)C(C)(C)O [Example 310] ?
Result: 8.77

Q: And what about the compound COC[C@H](CO)NC(=O)c1cc(-c2ccc(C(F)(F)F)cc2)nn(-c2cccnc2)c1=O [Example 111] ?
Result: 7.58

Q: C[C@@H](CO)NC(=O)c1cc(-c2ccc(C(F)F)cc2)nn(-c2cnn(C)c2)c1=O [Example 58] ?
Result: 7.73

Q: Please answer likewise for O=C(N[C@H]1COC[C@H]1O)c1cc(-c2ccc(Cl)cc2)nn(-c2cccnc2)c1=O (racemic) [Example 171]
Result: 7.23

Q: Next entry: Cn1cc(-n2nc(-c3ccc(OC(F)(F)F)cc3)cc(C(=O)N[C@@H]3COC[C@@H]3O)c2=O)cn1 (racemic) [Example 55]
Result: 7.75

Q: Another compound: C[C@@H](NC(=O)c1cc(-c2ccc(C(F)(F)F)cc2)nn(-c2cnn(C)c2)c1=O)C(C)(C)O [Example 202]
Result: 9.08

###

Biological target: AHR (Homo sapiens)
Experiment: In vitro assay 1: antagonism in human cell line (transactivation assay, U87 cells prestimulated with kynurenic acid, DRE firefly luciferase reporter)
Format: cell-based
Design: host or cells: U87 glioblastoma cells, stably transfected with DRE firefly luciferase and renilla reporter constructs
Conditions: 150 uM kynurenic acid, 20 hours, read-out: Assay 1: AHR-luc Hum Antagonism IC50
# maps each entry to its log10 of IC50
Remember, log10 of IC50, in nM.

Sample records with log10 of IC50:
CC(C)(O)C(NC(=O)c1cc(-c2ccc(Cl)cc2)nn(-c2cccnc2)c1=O)C(F)(F)F (single isomer, unassigned; enantiomer 1) [Example 122] | 1.42
Cn1cc(-n2nc(-c3ccc(Cl)cc3)cc(C(=O)NCC(O)C(F)(F)F)c2=O)cn1 (single isomer, unassigned; (+)) [Example 20] | 1.43
O=C(NC[C@H](O)CO)c1cc(-c2ccc(Cl)cc2)nn(-c2cncc(F)c2)c1=O [Example 99] | 2.11
C[C@@H](NC(=O)c1cc(-c2ccc(Cl)cc2)nn(-c2cnsc2)c1=O)C(C)(C)O [Example 326] | -0.30
CC(NC(=O)c1cc(-c2ccc(Cl)cc2)nn(-c2cccnc2)c1=O)C(O)C(F)(F)F (single isomer, unassigned) [Example 297] | 0.17

Q: log10 of IC50 lookup needed for O=C(N[C@H]1COC[C@@H]1O)c1cc(-c2ccc(Cl)cc2)nn(-c2cncc(F)c2)c1=O (single isomer, unassigned; enantiomer 2) [Example 156] , thanks.
Result: 1.40

Q: Follow-up entry: O=C(N[C@@H]1COC[C@@H]1O)c1cc(-c2ccc(C(F)(F)F)cc2)nn(-c2cccnc2)c1=O (racemic) [Example 107]
Result: 1.09

Q: Next molecule: O=C(N[C@H]1CCC[C@@H]1O)c1cc(-c2ccc(Cl)cc2)nn(-c2ccnnc2)c1=O [Example 174]
Result: 1.79

Q: Try this molecule next: O=C(NC[C@@H](O)CO)c1cc(-c2ccc(Cl)cc2)nn(-c2cncc(F)c2)c1=O [Example 98]
Result: 2.40

Q: Also, O=C(N[C@H]1CCCC(F)(F)[C@@H]1O)c1cc(-c2ccc(OC(F)(F)F)cc2)nn(-c2cccnc2)c1=O (single isomer, unassigned; enantiomer 1) [Example 141] please.
Result: 2.17

Q: What do you get for COC[C@H](CO)NC(=O)c1cc(-c2ccc(Cl)cc2)nn(-c2cncc(F)c2)c1=O [Example 86] ?
Result: 1.75

Q: Here is the next molecule: O=C(NC[C@H](O)C(F)(F)F)c1cc(-c2ccc(Cl)cc2)nn(-c2cnoc2)c1=O [Example 235]
Result: 0.95

Origin of the recorded values: patent US12522594B2
